Value source: patent US20030148956A1

Catalogue of CRF2R Emax % readings, one per entry.
Experimental system: T1, corticotropin releasing factor 2 receptor
T1 sequence (Q13324 whole entry, species assumed, looked up): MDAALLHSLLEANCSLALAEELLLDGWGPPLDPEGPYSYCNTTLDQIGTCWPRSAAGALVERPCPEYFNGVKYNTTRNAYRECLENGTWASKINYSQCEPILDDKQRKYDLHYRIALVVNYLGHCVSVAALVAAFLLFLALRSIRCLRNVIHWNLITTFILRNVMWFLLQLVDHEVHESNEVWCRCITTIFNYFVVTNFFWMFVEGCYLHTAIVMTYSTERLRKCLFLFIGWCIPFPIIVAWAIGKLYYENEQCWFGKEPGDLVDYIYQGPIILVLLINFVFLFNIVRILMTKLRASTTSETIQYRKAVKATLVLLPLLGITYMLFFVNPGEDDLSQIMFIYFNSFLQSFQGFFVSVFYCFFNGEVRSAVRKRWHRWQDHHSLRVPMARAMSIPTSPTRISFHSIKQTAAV
Protocol: cell-based or functional assay

ZGPPISIDVPTYLLRKMIEIEKQEKEKQQAANNRLLLDTI (C-terminal amide) [SEQ ID NO 253]: 86%

The binder listed as ZGPPISIDVPIYLLRKVIEIEKQEKEKQQAANNARLLARI (C-terminal amide) [SEQ ID NO 379] shows CRF2R Emax % equal to 94%

The binder listed as ZGPPISIDLPFQLLRILIEIEKQEKEKQQAANNRLLLDTI (C-terminal amide) [SEQ ID NO 255] shows CRF2R Emax % equal to 100%

The binder listed as ZGPPISIDVPYHLLRKVIEIEKQEKEKQQAANNARLLARI (C-terminal amide) [SEQ ID NO 377] shows CRF2R Emax % equal to 83%

The binder listed as ZGPPISIDLPYFLLRKMIEIEKQEKEKQQAANNRLLLDTI (C-terminal amide) [SEQ ID NO 220] shows CRF2R Emax % equal to 98%

The binder listed as ZGPPISIDLPLQLLRKVIEIEKQEKEKQQATTNARILARV (C-terminal amide) [SEQ ID NO 320] shows CRF2R Emax % equal to 100%

The binder listed as ZGPPISIDLPLYLLRKMIEIEKQEKEKQQATTNARLLDRV (C-terminal amide) [SEQ ID NO 243] shows CRF2R Emax % equal to 100%

The binder listed as ZGPPISIDLPTWLLRKVIEIEKQEKEKQQAANNARLLARI (C-terminal amide) [SEQ ID NO 291] shows CRF2R Emax % equal to 63.8%

The binder listed as ZGPPISIDLPYQLLRKVIEIEKQEKEKQQAANNRLLLDTI (C-terminal amide) [SEQ ID NO 283] shows CRF2R Emax % equal to 72%

The binder listed as ZGPPISIDLPYWLLRKMIEIEKQEKEKQQAANNARLLARI (C-terminal amide) [SEQ ID NO 289] shows CRF2R Emax % equal to 97.3%

The binder listed as ZGPPISIDLPFQLLRILIEIEKQEKEKQQAANNALLLAT (C-terminal amide) [SEQ ID NO 358] shows CRF2R Emax % equal to 100%

The binder listed as ZGPPISIDLPIILLRKVIEIEKQEKEKQQAANNARLLARI (C-terminal amide) [SEQ ID NO 295] shows CRF2R Emax % equal to 67.6%

The binder listed as ZGPPISIDVPIGLLRKMIEIEKQEKEKQQAANNRLLLDTI (C-terminal amide) [SEQ ID NO 254] shows CRF2R Emax % equal to 36%
